- study_target: human C5aR(CD88) (Homo sapiens)
- Construct: expressed in transfected cells; host or cells: rat basophilic leukemia cells (RBL)
- Sequence (P21730 1-350): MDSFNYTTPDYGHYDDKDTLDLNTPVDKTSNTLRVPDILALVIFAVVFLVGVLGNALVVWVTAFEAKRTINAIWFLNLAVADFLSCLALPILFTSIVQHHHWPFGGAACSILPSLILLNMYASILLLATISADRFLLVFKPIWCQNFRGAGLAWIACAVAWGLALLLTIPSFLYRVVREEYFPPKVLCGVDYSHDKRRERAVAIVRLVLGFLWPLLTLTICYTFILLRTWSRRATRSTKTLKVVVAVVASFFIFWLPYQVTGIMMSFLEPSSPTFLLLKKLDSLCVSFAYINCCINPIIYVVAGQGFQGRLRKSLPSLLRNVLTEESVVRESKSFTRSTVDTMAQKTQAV
- test: Determination of the IC50 value in an enzyme release assay (functional assay, antagonistic activity)
- Format: cell-based
- measurement_context: antagonistic activity; IC50 group in enzyme release assay, RBL cells expressing human C5aR(CD88); read-out: activity (group)
Starred links: 1 amine or outer side, 2 acyl side, 3 side chain; linkers in the order of their positions; H or OH if unused. Positions of bridges follow the written chain, without caps; N, C: chain ends. Non-standard residues stand in square brackets, D forms with d. Residues, ends and D or L forms follow the SMILES beside them. Ala(piperidin-4-yl) = O=C([C@H](CC1CCN([*:3])CC1)N[*:1])[*:2]; Phe(4-guanidino) = N=C(N)Nc1ccc(C[C@H](N)C(=O)O)cc1; Bta = N[C@@H](Cc1csc2ccccc12)C(=O)O; d(hLeu) = CC(C)CC[C@@H](N)C(=O)O; dCha = N[C@H](CC1CCCCC1)C(=O)O; Nle = CCCC[C@H](N)C(=O)O; Orn = NCCC[C@H](N)C(=O)O; Aze = O=C(O)[C@@H]1CCN1
# IC50 per entry

Field: example entries. Status: answers known.
INSERT INTO assay_data (molecule, quantity_kind, reported_result) VALUES
  ('CC(=O)N[C@@H](Cc1ccccc1)C(=O)N[C@H]1CCCNC(=O)[C@H](CC2CCNCC2)NC(=O)[C@H](Cc2c[nH]c3ccccc23)NC(=O)[C@@H](CC2CCCCC2)NC(=O)[C@@H]2CCCN2C1=O [compound 27] (Ac-F[Orn]P[dCha]W[Ala(piperidin-4-yl)]; lactam 2-C)', 'IC50', '> 2000 nM'),
  ('CCCC[C@@H]1NC(=O)[C@H](Cc2c[nH]c3ccccc23)NC(=O)[C@@H](CCC(C)C)NC(=O)[C@@H]2CCCN2C(=O)[C@@H](NC(=O)[C@H](Cc2ccccc2)NC(C)=O)CCCNC1=O [Compound 199, Ac-Phe-[Orn-Pro-hle-Trp-Nle]] (Ac-F[Orn]P[d(hLeu)]W[Nle]; lactam 2-C)', 'IC50', '20 to 50 nM');

Now consider the entry below.
Prompt: Name the recorded IC50 for CC(=O)N[C@@H](Cc1ccc(NC(=N)N)cc1)C(=O)N[C@@H](Cc1ccccc1)C(=O)N[C@@H](CCCN)C(=O)N1CC[C@H]1C(=O)N[C@H](CC1CCCCC1)C(=O)N[C@@H](Cc1csc2ccccc12)C(=O)N[C@@H](Cc1ccccc1)C(N)=O [Compound 140, Ac-Guf-Phe-Orn-Aze-cha-Bta-Phe-NH2] (Ac-[Phe(4-guanidino)]F[Orn][Aze][dCha][Bta]F-NH2) .
Response: 50 to 200 nM
